measurement-protocol: Pharmacokinetics after intravenous and oral administration in rats
Assay type: in vivo
run-conditions: oral bioavailability
quantity-name: F

molecule: CCC1CN(c2ccc(C#N)nn2)CCC1N(C)c1nc(Nc2ccc3c(C)n(C)nc3c2)ncc1Cl (stereo not drawn) [Ex. 19]
quantity-name: F
result: 23.4%

molecule: Cc1c2ccc(Nc3ncc(Cl)c(NC4CCN(c5ccc(C#N)cn5)CC4)n3)cc2nn1C [Ex. 4]
quantity-name: F
result: 78.76%

molecule: Cc1nn(C)cc1Nc1ncc(Cl)c(NC2CCN(c3ccc(C#N)nn3)CC2)n1 [Ex. 11]
quantity-name: F
result: 61.8%

molecule: CN(c1nc(Nc2cnn(C)c2)ncc1Cl)C1CCN(c2ccc(C#N)cn2)CC1 [Ex. 5]
quantity-name: F
result: 182.46%

molecule: Cc1cnc(Nc2cnn(C)c2)nc1N(C)C1CCN(c2ccc(C#N)cn2)CC1 [Ex. 6]
quantity-name: F
result: 22.2%

molecule: CCC1CN(c2ccc(C#N)cn2)CCC1Nc1nc(Nc2ccc3c(C)n(C)nc3c2)ncc1Cl (stereo not drawn) [Ex. 23]
quantity-name: F
result: 31.0%

molecule: Cn1cc(Nc2ncc(Cl)c(NC3CCN(c4ccc(C#N)cn4)CC3)n2)cn1 [Ex. 1]
quantity-name: F
result: 136.8%

molecule: Cn1cc2ccc(Nc3ncc(Cl)c(NC4CCN(c5ccc(C#N)nn5)CC4)n3)cc2n1 [Ex. 25]
quantity-name: F
result: 62.8%

molecule: CCC1CN(c2ccc(C#N)cn2)CCC1Nc1nc(Nc2cn(C)nc2C)ncc1Cl (stereo not drawn) [Ex. 16]
quantity-name: F
result: 60.9%

----------
measurement-protocol: Compound stability in human liver microsomes
Type: in vitro ADME
run-conditions: pH 7.4, 37° C., NADPH, read-out: Human T1/2
Output 1.0 for half-life not less than 20 min; output 0.0 otherwise.

compound: CN(c1nc(Nc2cnn(C)c2)ncc1Cl)C1CCN(c2ccc(C#N)cn2)C1 (stereo not drawn)
category: 0.0

compound: CCC1CN(c2ccc(C#N)nn2)CCC1Nc1nc(Nc2cc(C)n(C)n2)ncc1Cl (stereo not drawn)
category: 1.0

compound: CCC1CN(c2ccc(C#N)nn2)CCC1N(C)c1nc(Nc2ccc3c(C)n(C)nc3c2)ncc1Cl (stereo not drawn)
category: 0.0

compound: Cn1cc2ccc(Nc3ncc(Cl)c(NC4CCN(c5ccc(C#N)nn5)CC4)n3)cc2n1
category: 1.0

compound: CCC1CN(c2ccc(C#N)nn2)CCC1Nc1nc(Nc2ccc3c(C)n(C)nc3c2)ncc1Cl (stereo not drawn)
category: 0.0

compound: Cc1cc(Nc2ncc(Cl)c(NC3CCN(c4ccc(C#N)nn4)CC3)n2)nn1C
category: 1.0

----------
measurement-protocol: Compound stability in rat liver microsomes
Format: in vitro ADME
run-conditions: pH 7.4, 37° C., NADPH, read-out: Rat T1/2
Exam item: assign Condition met to entries whose half-life is below 20 min and Condition not met to entries at or above 20 min. Note that a value of exactly 20 min receives Condition not met.

molecule: CCC1CN(c2ccc(C#N)nn2)CCC1Nc1nc(Nc2cc(C)n(C)n2)ncc1Cl (stereo not drawn) [Ex. 15]
category: Condition not met
//
molecule: CN(c1nc(Nc2cnn(C)c2)ncc1Cl)C1CCN(c2ccc(C#N)cn2)C1 (stereo not drawn) [Ex. 7]
category: Condition met
//
molecule: Cc1cnc(Nc2cnn(C)c2)nc1N(C)C1CCN(c2ccc(C#N)cn2)CC1 [Ex. 6]
category: Condition met
//
molecule: Cc1cc(Nc2ncc(Cl)c(NC3CCN(c4ccc(C#N)nn4)CC3)n2)nn1C [Ex. 13]
category: Condition met
//
molecule: CCC1CN(c2ccc(C#N)cn2)CCC1Nc1nc(Nc2cc(C)n(C)n2)ncc1Cl (stereo not drawn) [Ex. 21]
category: Condition not met
//
molecule: Cc1nn(C)cc1Nc1ncc(Cl)c(NC2CCN(c3ccc(C#N)nn3)CC2)n1 [Ex. 11]
category: Condition not met
//
molecule: Cc1nn(C)cc1Nc1ncc(Cl)c(N(C)C2CCN(c3ccc(C#N)cn3)CC2)n1 [Ex. 14]
category: Condition met
//
molecule: Cc1cc(Nc2ncc(Cl)c(N(C)C3CCN(c4ccc(C#N)cn4)CC3)n2)nn1C [Ex. 9]
category: Condition met
//
molecule: Cc1nn(C)cc1Nc1ncc(Cl)c(NC2CCN(c3ccc(C#N)cn3)CC2)n1 [Ex. 10]
category: Condition met
//
molecule: CCC1CN(c2ccc(C#N)cn2)CCC1N(C)c1nc(Nc2cc(C)n(C)n2)ncc1Cl (stereo not drawn) [Ex. 18]
category: Condition not met
//
molecule: Cn1cc2ccc(Nc3ncc(Cl)c(NC4CCN(c5ccc(C#N)nn5)CC4)n3)cc2n1 [Ex. 25]
category: Condition not met
//
molecule: Cc1c2ccc(Nc3ncc(Cl)c(N(C)C4CCN(c5ccc(C#N)nn5)CC4)n3)cc2nn1C [Ex. 24]
category: Condition met
//
molecule: Cc1c2ccc(Nc3ncc(Cl)c(NC4CCN(c5ccc(C#N)cn5)CC4)n3)cc2nn1C [Ex. 4]
category: Condition not met
//
molecule: CCC1CN(c2ccc(C#N)nn2)CCC1N(C)c1nc(Nc2ccc3c(C)n(C)nc3c2)ncc1Cl (stereo not drawn) [Ex. 19]
category: Condition met
//
molecule: Cc1c2ccc(Nc3ncc(Cl)c(NC4CCN(c5ccc(C#N)nn5)CC4)n3)cc2nn1C [Ex. 12]
category: Condition met
//
molecule: Cc1cc(Nc2ncc(Cl)c(NC3CCN(c4ccc(C#N)cn4)CC3)n2)nn1C [Ex. 2]
category: Condition met
//
molecule: Cc1cc(Nc2ncc(Cl)c(NC3CCN(c4ccc(C#N)cn4)CC3)n2)n[nH]1 [Ex. 3]
category: Condition not met
//
molecule: CCC1CN(c2ccc(C#N)nn2)CCC1Nc1nc(Nc2ccc3c(C)n(C)nc3c2)ncc1Cl (stereo not drawn) [Ex. 17]
category: Condition met

----------
measurement-protocol: Pharmacokinetics after intravenous and oral administration in rats
Format: in vivo
run-conditions: oral bioavailability
quantity-name: F (%)

molecule: CCC1CN(c2ccc(C#N)cn2)CCC1N(C)c1nc(Nc2cc(C)n(C)n2)ncc1Cl (stereo not shown) [Ex. 18]
result: 66.8
--
molecule: CCC1CN(c2ccc(C#N)cn2)CCC1N(C)c1nc(Nc2ccc3c(C)n(C)nc3c2)ncc1Cl (stereo not shown) [Ex. 20]
result: 30.4
--
molecule: CN(c1nc(Nc2cnn(C)c2)ncc1Cl)C1CCN(c2ccc(C#N)cn2)C1 (stereo not shown) [Ex. 7]
result: 67.1
--
molecule: Cc1cc(Nc2ncc(Cl)c(N(C)C3CCN(c4ccc(C#N)cn4)CC3)n2)nn1C [Ex. 9]
result: 45.8
--
molecule: Cc1c2ccc(Nc3ncc(Cl)c(NC4CCN(c5ccc(C#N)nn5)CC4)n3)cc2nn1C [Ex. 12]
result: 39.2
--
molecule: CCC1CN(c2ccc(C#N)nn2)CCC1Nc1nc(Nc2cc(C)n(C)n2)ncc1Cl (stereo not shown) [Ex. 15]
result: 92.2
--
molecule: CCC1CN(c2ccc(C#N)cn2)CCC1Nc1nc(Nc2cc(C)n(C)n2)ncc1Cl (stereo not shown) [Ex. 21]
result: 106.1

----------
measurement-protocol: Pharmacokinetics after intravenous and oral administration in rats
Format: in vivo
run-conditions: rat, plasma, iv dosing, 1 mg/kg, read-out: Vss
This section presents compounds with their documented Vd values.
quantity-name: Vd (L/kg)

compound: CCC1CN(c2ccc(C#N)nn2)CCC1Nc1nc(Nc2cc(C)n(C)n2)ncc1Cl (centres unmarked)
quantity-name: Vd
value-unit: L/kg
result: 0.48

compound: Cn1cc(Nc2ncc(Cl)c(NC3CCN(c4ccc(C#N)cn4)CC3)n2)cn1
quantity-name: Vd
value-unit: L/kg
result: 0.31

compound: Cn1cc2ccc(Nc3ncc(Cl)c(NC4CCN(c5ccc(C#N)nn5)CC4)n3)cc2n1
quantity-name: Vd
value-unit: L/kg
result: 0.33

compound: Cc1nn(C)cc1Nc1ncc(Cl)c(N(C)C2CCN(c3ccc(C#N)cn3)CC2)n1
quantity-name: Vd
value-unit: L/kg
result: 1.19

compound: CN(c1nc(Nc2cnn(C)c2)ncc1Cl)C1CCN(c2ccc(C#N)cn2)C1 (centres unmarked)
quantity-name: Vd
value-unit: L/kg
result: 0.86

compound: CCC1CN(c2ccc(C#N)nn2)CCC1Nc1nc(Nc2ccc3c(C)n(C)nc3c2)ncc1Cl (centres unmarked)
quantity-name: Vd
value-unit: L/kg
result: 0.45

compound: CCC1CN(c2ccc(C#N)nn2)CCC1Nc1ccnc(Nc2cc(C)n(C)n2)n1 (centres unmarked)
quantity-name: Vd
value-unit: L/kg
result: 1.66

compound: Cc1cc(Nc2ncc(Cl)c(NC3CCN(c4ccc(C#N)cn4)CC3)n2)n[nH]1
quantity-name: Vd
value-unit: L/kg
result: 0.94

compound: Cc1c2ccc(Nc3ncc(Cl)c(NC4CCN(c5ccc(C#N)nn5)CC4)n3)cc2nn1C
quantity-name: Vd
value-unit: L/kg
result: 0.5

compound: CCC1CN(c2ccc(C#N)cn2)CCC1Nc1nc(Nc2ccc3c(C)n(C)nc3c2)ncc1Cl (centres unmarked)
quantity-name: Vd
value-unit: L/kg
result: 0.84

compound: Cc1cnc(Nc2cnn(C)c2)nc1N(C)C1CCN(c2ccc(C#N)cn2)CC1
quantity-name: Vd
value-unit: L/kg
result: 0.56

compound: Cc1cc(Nc2ncc(Cl)c(N(C)C3CCN(c4ccc(C#N)cn4)CC3)n2)nn1C
quantity-name: Vd
value-unit: L/kg
result: 2.63

compound: Cc1nn(C)cc1Nc1ncc(Cl)c(NC2CCN(c3ccc(C#N)cn3)CC2)n1
quantity-name: Vd
value-unit: L/kg
result: 0.63

compound: Cc1nn(C)cc1Nc1ncc(Cl)c(NC2CCN(c3ccc(C#N)nn3)CC2)n1
quantity-name: Vd
value-unit: L/kg
result: 0.62

compound: CCC1CN(c2ccc(C#N)cn2)CCC1Nc1nc(Nc2cn(C)nc2C)ncc1Cl (centres unmarked)
quantity-name: Vd
value-unit: L/kg
result: 0.96

compound: Cc1c2ccc(Nc3ncc(Cl)c(NC4CCN(c5ccc(C#N)cn5)CC4)n3)cc2nn1C
quantity-name: Vd
value-unit: L/kg
result: 0.72

compound: CCC1CN(c2ccc(C#N)cn2)CCC1N(C)c1nc(Nc2cc(C)n(C)n2)ncc1Cl (centres unmarked)
quantity-name: Vd
value-unit: L/kg
result: 2.88

Cited source: patent US10059689B2
